System: Wolbachia pipientis
EXPERIMENTAL PROTOCOL: Anti-Wolbachia Cell-Based Screen
Format: functional
Design: scale not given: in the data most compounds retested in dose-response had high values
EXPERIMENTAL SETUP: 5 µM
Out of some 48,000 compounds screened, about 13,000 (27%) showed an effect of 50% or more. Some of the results follow.
REPORTED PROPERTY: Percent Effect (%)

>  <MOLECULE>
OC(CN(Cc1ccccc1)Cc1ccccn1)c1cccs1 (configuration not stated)

>  <REPORTED PROPERTY>
Percent Effect

>  <NUMBER>
-16.67

$$$$
>  <MOLECULE>
CCOc1cccc(CN(Cc2cnn(C)c2)CC(C)C)c1O

>  <REPORTED PROPERTY>
Percent Effect

>  <NUMBER>
5.177

$$$$
>  <MOLECULE>
O=C(CC1Cn2ncnc2NC1=O)Nc1ccccc1 (configuration not stated)

>  <REPORTED PROPERTY>
Percent Effect

>  <NUMBER>
119.2

$$$$
>  <MOLECULE>
Cn1cc(CN(Cc2ccccn2)Cc2ccccc2Cl)cn1

>  <REPORTED PROPERTY>
Percent Effect

>  <NUMBER>
107.7

$$$$
>  <MOLECULE>
COc1ccccc1CN(C)c1nccc(-c2cn(C)nc2C)n1

>  <REPORTED PROPERTY>
Percent Effect

>  <NUMBER>
-7.113

$$$$
>  <MOLECULE>
CCN(C(=O)c1ccc2nncn2c1)C(C)Cc1ccc(OC)cc1 (configuration not stated)

>  <REPORTED PROPERTY>
Percent Effect

>  <NUMBER>
0.4912

$$$$
>  <MOLECULE>
Cn1cc(CN(Cc2ccccc2)CC(O)c2cccs2)cn1 (configuration not stated)

>  <REPORTED PROPERTY>
Percent Effect

>  <NUMBER>
-0.3984

$$$$
>  <MOLECULE>
Cc1ccsc1[C@@H]1CCN(C(=O)Cc2ccc(O)cc2)C[C@H]1O

>  <REPORTED PROPERTY>
Percent Effect

>  <NUMBER>
-5.599

$$$$
>  <MOLECULE>
COCCN1CCN(CCCc2nnnn2-c2ccccc2)CC1

>  <REPORTED PROPERTY>
Percent Effect

>  <NUMBER>
-6.154

$$$$
>  <MOLECULE>
CCCNC(=O)c1nc2c(o1)CN(C(C)=O)C2

>  <REPORTED PROPERTY>
Percent Effect

>  <NUMBER>
21.64

$$$$
>  <MOLECULE>
Cl.Cn1cc(CN(Cc2ccccc2)Cc2ccccn2)cn1

>  <REPORTED PROPERTY>
Percent Effect

>  <NUMBER>
101.3

$$$$
>  <MOLECULE>
Cc1nn(C)cc1CN(Cc1ccccn1)Cc1ccccc1Cl

>  <REPORTED PROPERTY>
Percent Effect

>  <NUMBER>
76.4

$$$$
